Where do the numbers come from? From patent US20120172285A1.

- Measurement target: recombinant BFL-1/A1ΔC (UniProt Q16548)
- Sequence (Q16548 1-153, stated change not applied): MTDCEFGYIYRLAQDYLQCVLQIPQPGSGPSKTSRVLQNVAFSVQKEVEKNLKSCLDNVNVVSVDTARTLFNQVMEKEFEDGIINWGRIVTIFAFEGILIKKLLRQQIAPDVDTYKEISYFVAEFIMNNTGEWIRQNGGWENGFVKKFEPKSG
- Assay name: fluorescence polarization (FPA), FITC-SAHB with recombinant anti-apoptotic protein [lower table]
Bridges are numbered along the chain shown (N, C = ends). Where no end group is shown, it is not given here. [ ]: non-standard residue; d: D form. The star is where a group is joined. FITC = O=C1OC2(c3ccc(O)cc3Oc3cc(O)ccc32)c2ccc(NC(=S)*)cc21; S5 = C=CCCC[C@](C)(N)C(=O)O; Nle = CCCC[C@H](N)C(=O)O
Property measured: Kd (nM)

Examples from the recorded data:
- {FITC}-QWAREIGAQLR[S5][Nle]AD[S5]LNAQY (staple 12-16, domain: BH3) [PUMA SAHB]: 34
- {FITC}-DIIRNIARHLA[S5]VGD[S5][Nle]DRSIRR (staple 12-16, domain: BH3) [BID SAHB]: 95

a: {FITC}-QVGRQLA[S5]IGD[S5]INRRYD (staple 8-12, also called FITC-BAK SAHB; BAK BH3 helix) [BAK SAHB]
b: {FITC}-ASTKKLSESLK[S5]IGD[S5]LDSN (staple 12-16, domain: BH3) [BAX SAHB]
Would you mind telling me which has the lower recorded Kd between a and b ? Bench note: the answer is the label of the chosen record.
b
